System: MDA-MB-231 complex spheroid viability
Assay: Anticancer human tumor MDA-MB-231/ATCC cell line growth inhibition;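 also: drug exposure lasted 7 days starting on day 3 of spheroid growth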
Conditions: second compound 1 µM; first compound 0.00316 µM; hits give low values
Threshold 40%: viability, T/C strictly smaller gives true (1), otherwise false (0).

Worked examples, 5 molecules total:
- molecule: "CC(C)CC(NC(=O)CNC(=O)c1cc(Cl)ccc1Cl)B1OC(=O)CC(CC(=O)O)(C(=O)O)O1 (centres undefined) + NC1CC1c1ccc(-c2cccc(O)c2)cc1"
  class-label: "false (0)"
- molecule: "COc1cc(Nc2ncc3c(n2)-c2ccc(Cl)cc2C(c2c(F)cccc2OC)=NC3)ccc1C(=O)O + NC1CC1c1ccc(-c2cccc(O)c2)cc1"
  class-label: "true (1)"
- molecule: "CC(C)CC(NC(=O)CNC(=O)c1cc(Cl)ccc1Cl)B1OC(=O)CC(CC(=O)O)(C(=O)O)O1 (centres undefined) + NC1CCC(NC2CC2c2ccccc2)CC1"
  class-label: "false (0)"
- molecule: "Nc1ncn(C2CC(O)C(CO)O2)c(=O)n1 (centres undefined) + NC1CC1c1ccc(-c2cccc(O)c2)cc1"
  class-label: "false (0)"
- molecule: "CC1COCCN1c1cc(-c2ccnn2C)c2ccnc(-c3ccn[nH]3)c2n1 (centres undefined) + NC1CC1c1ccc(-c2cccc(O)c2)cc1"
  class-label: "true (1)"

Decide: viability, T/C of O=C(C=Cn1cnc(-c2cc(C(F)(F)F)cc(C(F)(F)F)c2)n1)NNc1cnccn1 + NC1CC1c1ccc(-c2cccc(O)c2)cc1 strictly below 40%?
true (1)

Next record, please: O=C(C=Cn1cnc(-c2cc(C(F)(F)F)cc(C(F)(F)F)c2)n1)NNc1cnccn1 + NC1CCC(NC2CC2c2ccccc2)CC1
false (0)

Next record, please: CC[C@@]1(O)C(=O)OCc2c1cc1n(c2=O)Cc2cc3c(CN(C)C)c(O)ccc3nc2-1 + NC1CC1c1ccc(-c2cccc(O)c2)cc1
true (1)
